The reported numbers originate from PubChem BioAssay.

Molecular target: NADPH oxidase 4 (Homo sapiens)
Assay: compounds shifting NOX4 Amplex Red fluorescence – cell-based, HEK293-NOX4, tetracycline-induced, NOX inhibitor project, primary screen (AID 1160)
Settings: HEK293-NOX4, Amplex Red H2O2 fluorescence, 45 min; higher = more signal, called active from +8 up or from −8 down
Active and inactive are the calls of the source.
Recorded z-score by entry

Some compounds with recorded z-score:
{"compound": "C=CCN1Cc2ccccc2[C@@H]2OC(c3ccc(OCCCO)cc3)=N[C@]2(CC=C)C1=O", "z-score": "0.452 (inactive)"}
{"compound": "COc1ccc([Si](C)(C)[C@@H]2[C@@H](CC(=O)N3CCC[C@H]3CO)O[C@]3(C(=O)N(Cc4cccc(N5C(=O)COc6ccccc65)c4)c4ccccc43)[C@H]2C)cc1", "z-score": "1.74 (inactive)"}

Requested read-out z-score, target or system NADPH oxidase 4 (Homo sapiens), entry `O=C1O[C@@H](c2ccccc2)[C@@H](c2ccccc2)N2[C@@H](c3ccc(OCCO)cc3)[C@]3(C(=O)Nc4ccc(C#CC5=CCCCC5)cc43)[C@@H](C(=O)NC[C@H](O)c3ccccc3)[C@H]12`
0.433 (inactive)

Lookup `[N-]=[N+]=Nc1ccccc1[C@H]1OC(c2ccc(OCCCO)cc2)=N[C@@]1(Cc1ccccc1)C(=O)NCCN1CCOCC1`
0.585 (inactive)

Lookup Cn1cccc1C(O)C1C=CC2C(=O)N(c3ccccc3)C(=O)C2N1Nc1ccccc1 (stereo not given)
-1.94 (inactive)

Lookup COc1cc(OC)c(C(O)C2C=CC3C(=O)N(Cc4ccccc4)C(=O)C3N2n2cnnc2)cc1Br (stereo not given)
-1.35 (inactive)

Lookup `CC[C@@H]1C=C(C(=O)O)[C@H](c2ccccc2)N1S(=O)(=O)c1ccc(C)cc1`
-0.114 (inactive)

Lookup `CCOC(=O)C[C@H]1[C@H](OC(=O)Cc2ccc3c(c2)OCO3)[C@@H](NC(=O)c2ccc3ccccc3n2)c2cc(OCCCO)ccc2N1C(=O)c1ccc2ccccc2n1`
0.204 (inactive)

###

Molecular target: Focal adhesion kinase 1 (Homo sapiens)
Experiment: PTK2 protein binding on printed compound slides – biochemical, small-molecule microarray, 635/667 nm fluorescence, BSA, DTT, primary screen (AID 1130);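 further: composite of spot emission at 667 nm and signal to noise over triplicate slides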
Conditions: 635 nm fluorescence, higher = more signal
readout.type: composite z-score
Response field accepts a number only; no unit should be typed.

{"molecule": "CO[C@H]1O[C@H](CO)[C@@H](OC(=O)Nc2ccc3c(c2)OCO3)[C@H](OC(=O)Nc2ccc3c(c2)OCO3)[C@@H]1OC(=O)Nc1ccc2c(c1)OCO2", "system.tested": "Focal adhesion kinase 1 (Homo sapiens)", "composite z-score": 0.347}

Which composite z-score is listed for `CCCCCCc1nc(Cc2cc(OC)c(OC)c(OC)c2)cc2c1[Si](C(C)C)(C(C)C)OC2` ?
-0.191

Lookup `COCC(=C=CC[C@H](O)c1ccc(OCCO)cc1)CCO`
-0.225

Lookup `CCOC(=O)C[C@H]1[C@H](OC(=O)Cc2ccc3c(c2)OCO3)[C@@H](NC(=O)c2ccc3ccccc3n2)c2cc(OCCCO)ccc2N1C(=O)c1ccccc1`
-0.0076

Lookup CC(C)N1CC=CC23O[C@@H]4C=CCCOC(=O)C4[C@H]2C(=O)N(CCCO)[C@@H]3C1=O (stereo partly specified)
0.248

Lookup `CCOC(=O)C1=C[C@@H](C(C)(C)C)N(S(=O)(=O)c2ccc(C)cc2)[C@H]1c1cccc2ccccc12`
0.191

Lookup Cc1ccc(C(C)CC(O)C2C=CC3C(=O)N(c4ccccc4)C(=O)C3N2Nc2ccccc2)o1 (stereo unspecified)
0.908
